measurementTarget: Amine oxidase [flavin-containing] B (Bos taurus)
Sequence (P56560 whole entry): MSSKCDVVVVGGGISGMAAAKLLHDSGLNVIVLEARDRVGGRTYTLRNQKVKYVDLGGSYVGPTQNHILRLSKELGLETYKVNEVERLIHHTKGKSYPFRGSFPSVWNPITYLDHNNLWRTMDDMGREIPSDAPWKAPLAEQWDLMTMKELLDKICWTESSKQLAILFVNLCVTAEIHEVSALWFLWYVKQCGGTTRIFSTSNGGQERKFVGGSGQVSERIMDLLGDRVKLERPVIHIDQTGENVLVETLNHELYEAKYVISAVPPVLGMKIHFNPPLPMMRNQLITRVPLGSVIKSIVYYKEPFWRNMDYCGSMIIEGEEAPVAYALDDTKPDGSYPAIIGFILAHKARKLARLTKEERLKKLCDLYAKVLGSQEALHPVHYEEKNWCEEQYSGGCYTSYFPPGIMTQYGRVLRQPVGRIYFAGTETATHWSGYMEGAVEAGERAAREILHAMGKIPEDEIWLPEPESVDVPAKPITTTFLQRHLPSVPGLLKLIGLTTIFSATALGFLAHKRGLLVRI
assayDetails: Inactivation constant against beef liver mitochondrial monoamine oxidase-B (MAO-B)
experimentalConditions: cattle
outcomeMeasure: log10 of kinact (log10 of the value in s⁻¹)

> print(dat)
                                   compound   outcomemeasure  valuereported
1       COc1ccc([C@@H]2C[C@@H](CN)OC2=O)cc1  log10 of kinact          -0.42
2          NC[C@@H]1C[C@H](c2ccccc2)C(=O)O1  log10 of kinact          -1.37
3        COc1ccc([C@H]2C[C@@H](CN)OC2=O)cc1  log10 of kinact          -1.13
4  COc1ccc(N2CC(CN)OC2=O)cc1 (stereo not given)  log10 of kinact          -1.88
5         NC[C@@H]1C[C@@H](c2ccccc2)C(=O)O1  log10 of kinact          -1.45

----------
measurementTarget: UniProt P56560
outcomeMeasure: Ki (mM)

> print(dat)
                                   compound  outcomemeasure  valuereported
1  COc1ccc(N2CC(CN)OC2=O)cc1 (configuration not stated)              Ki           12.5
2       COc1ccc([C@@H]2C[C@@H](CN)OC2=O)cc1              Ki           18.2
